# Tested on: SK-MEL-28 melanoma
# METHOD SUMMARY: NCI tumour cell line growth inhibition, 48 h
MEASUREMENT TYPE: TGI

| MOLECULE | RESULT |
| --- | --- |
| Cc1nn(-c2ccccc2)c2nc3c(c(C)nn3-c3ccccc3)c(-c3ccccc3Br)c12 | > 100 µM |
| O=C1C=CC(=O)N1c1ccc2c(c1)Cc1cc(NC(=O)C(F)(F)F)ccc1-2 | 34.4 µM |
| CC(=O)O[C@H]1C(=O)[C@@]2(C)[C@H]([C@H](OC(=O)c3ccccc3)[C@]3(O)C[C@H](OC(=O)[C@H](OC(=O)CCC(=O)OC4CCC(S/N=C(N)/N=C(\N)N(C)C)CC4)[C@@H](NC(=O)c4ccccc4)c4ccccc4)C(C)=C1C3(C)C)[C@]1(OC(C)=O)CO[C@@H]1C[C@@H]2O (stereo partly drawn) | > 50 µM |

----------
Item-by-item account of TGI
# System: KM12 colon
# METHOD SUMMARY: NCI tumour cell line growth inhibition, 48 h

| COMPOUND | TGI |
| --- | --- |
| C/C(=C\c1ccn(-c2ccc(N)cc2C(F)(F)F)n1)[C@@H]1C[C@@H]2O[C@]2(C)CCC[C@H](C)[C@H](O)[C@@H](C)C(=O)C(C)(C)[C@@H](O)CC(=O)O1 | > 11.1 µM |
| O=c1c2cc([N+](=O)[O-])cnc2sn1-c1ccc(Oc2ccccc2)cc1 | > 100 µM |
| Cc1ncc([N+](=O)[O-])n1CC(O)Cn1cnc([N+](=O)[O-])n1 (stereo unspecified) | > 100 µM |
| C[C@]12CC[C@H]3[C@@H](CC=C4C[C@@H](O)CC[C@@]43C)[C@@H]1C/C(=C\c1cccc(OCCCn3ccnc3)c1)[C@@H]2O | 28.7 µM |
| COc1cc(C(=O)O)ccc1NC(=O)[C@@H]1N[C@@H](CC(C)(C)C)[C@](C#N)(c2ccc(Cl)cc2F)[C@H]1c1cccc(Cl)c1F | > 24.2 µM |
| CC[N+](CC)(CC)Cc1cn(S(=O)(=O)c2ccccc2)c2ccccc12 | > 100 µM |
| Cc1nc2c(n1CCCl)C(=O)c1ccccc1C2=O | > 100 µM |
| C=CCNC(NCC=C)=C(C(Cl)=C(Cl)Cl)[N+](=O)[O-] | > 100 µM |
| CCC(C)C(NC(=O)C(CCCCN)NC(=O)C(NC(=O)C(CCC(N)=O)NC(=O)C(CCCNC(=N)N)NC(C)=O)C(C)CC)C(=O)NC(Cc1c[nH]c2ccccc12)C(=O)NC(Cc1ccccc1)C(=O)NC(CCC(N)=O)C(=O)NC(CC(N)=O)C(=O)NC(CCCNC(=N)N)C(=O)NC(CCCNC(=N)N)C(=O)NC(CCSC)C(=O)NC(CCCCN)C(=O)NC(Cc1c[nH]c2ccccc12)C(=O)NC(CCCCN)C(=O)NC(CCCCN)C(N)=O (stereo unspecified) | > 50 µM |
| CCn1cc(C(=O)O)c(=O)c2cc(F)c(N3CCN(Cn4c(O)c(N=NC(=O)c5ccncc5)c5cc(Cl)ccc54)CC3)cc21 | > 100 µM |
| COc1ccc(-c2cc(=O)c3c(O)c(OC)c(O)cc3o2)cc1O | 18.6 µM |
| CC(=O)OCCC[C@@H]1C(=C(C)C)CCC2[C@@]1(C)CC[C@@]1(C)C[C@](C)(CCC=C(C)C)CC[C@]21C (stereo partly specified) | > 100 µM |
| Cc1c(Cl)c(=O)oc2cc(OCC(=O)c3ccccc3)ccc12 | > 100 µM |
| C=C1[C@H](OCC(C)C)[C@@H](OCC(C)C)[C@@H](O)C(C)(C)/C=C/[C@H](C)C(=O)[C@@]2(O)C[C@H](C)[C@H](O)[C@@H]2[C@H]1OCC(C)C | > 7.5 µM |
| S=C(NCCCCCCNC(=S)Nc1c2ccccc2nc2ccccc12)Nc1c2ccccc2nc2ccccc12 | > 34.7 µM |
| COc1ccc(/C(Cl)=C(\C=O)c2cc(OC)c(OC)c(OC)c2)cc1OC | 73.8 µM |

----------
# Test system: CCRF-CEM leukemia
# METHOD SUMMARY: NCI tumour cell line growth inhibition, 48 h
MEASUREMENT TYPE: TGI

| MOLECULE | RESULT |
| --- | --- |
| O[C@H]1[C@H]2[C@H](O)CCCN2C[C@H]1O | > 100 µM |
| O=c1c2cc([N+](=O)[O-])cnc2sn1-c1ccc(Oc2ccccc2)cc1 | > 100 µM |
| COc1cc(N)ccc1Nc1c2ccccc2nc2ccccc12 | > 100 µM |
| CC(=O)[CH-]C(C)=O.CC(=O)[CH-]C(C)=O.CC(=O)[CH-]C(C)=O.[Cl-].[Hf+4] | > 100 µM |
| C#CCOC(=O)C(N)CS (stereo not given) | > 100 µM |
| O=C(NN1C(=O)/C(=C/c2ccc(Cl)cc2)N=C1c1ccccc1)c1c(Cl)c(Cl)c(Cl)c(Cl)c1-c1nc2ccccc2[nH]1 | > 100 µM |
| CCOC(=O)c1ccc(C(O)CC(=O)OC(C)(C)C)[nH]1 (stereo not given) | 88 µM |
| CCN(CC)CCN1CCN=c2c3cc(OC)ccc3n3cnc4ccc1c2c43 | 1.71 µM |
| O=C1NC(=O)[C@H]2C3C=CC([C@@H]12)[C@@H]1C(=O)NC(=O)[C@H]31 | > 100 µM |
| Cc1nc2c(s/c(=N\N)n2-c2ccccc2)c(=O)[nH]1 | > 100 µM |

----------
# System: OVCAR-8 ovarian
# METHOD SUMMARY: NCI tumour cell line growth inhibition, 48 h; in the data active = GI50 below about 0.43 µM; inactive = the rest
*1 amine or outer side, *2 acyl side, *3 side chain or, on linkers, in order; H or OH if unused. Where a SMILES comes first, the peptide text is derived from it. CO = O=C([*:1])[*:2]
Outcome codes: true (1) for active, false (0) for inactive

| MOLECULE | ASSIGNED LABEL |
| --- | --- |
| O=C(Nc1nc(-c2ccc(Cl)cc2)cs1)c1ccc(O)c(O)c1 | false (0) |
| C[C@@H](Oc1cc(-c2cnn(C3CC4(CCNCC4)C3)c2)cnc1N)c1c(F)ccc(Cl)c1Cl | false (0) |
| CC1(C)OC(=O)C=C(O)O1.CC1(C)OC(=O)C=C(O)O1.CCO.Oc1ccc2c(c1)CCC2.[Ti] | false (0) |
| CCC(=O)Nc1ccc2c(c1)CN1C(=O)c3ccccc3C1=N2 | false (0) |
| CC(C)C(NC(=O)C(CCCN=C(N)N)NC(=O)NC(Cc1ccccc1)C(=O)O)C(=O)NC(C=O)CCCN=C(N)N (stereo not drawn) ({Phe-CO}-Arg-Val-Arg-aldehyde; configuration not given here) | false (0) |
| CN(C)c1ccc2[nH]c(O)c(C=Nc3ccc(S(N)(=O)=O)cc3)c2c1 | false (0) |
| C=C1C(=O)O[C@H]2[C@H]1CC/C(Cn1cc(Cn3ccc4cc(Cl)ccc43)nn1)=C\CC[C@@]1(C)O[C@@H]21 | false (0) |
| CCC[C@H](Nc1nc(-c2ccc(NC(=O)NCC)c(OC)c2)ncc1C)c1cccnc1 | true (1) |
| C[C@]12CC[C@H]3[C@@H](CC=C4C[C@@H](O)CC[C@@]43C)[C@@H]1C/C(=C\c1cccc(OCCCn3ccnc3)c1)[C@@H]2O | false (0) |
| COc1cc(N)ccc1Nc1c2ccccc2nc2ccccc12 | false (0) |
| Cc1cc(S(=O)(=O)/N=C(\N)n2nc(C)c(C)c2C)c(SCc2ccccc2)cc1Cl | false (0) |
| CNC(=O)c1ccc(Nc2nc(OC3CCCC3)c3c(-c4ccc5nc(C)oc5c4)c[nH]c3n2)c(OC)c1 | false (0) |
| Nc1c(C(=O)Nc2cccc3ccccc23)sc2nc3c(cc12)CCCCC3 | false (0) |
| N#Cc1c(SCc2ccccc2)nc2[nH]c(=S)[nH]c(=S)c2c1-c1ccco1 | false (0) |
| Cn1c(Cc2ccccc2)nc2cc3ccccc3cc21 | false (0) |
| Cc1c(N(C(=O)c2cc(-c3cc(Cl)ccc3C(=O)N3Cc4ccccc4C[C@H]3CN3CCOCC3)n(C)c2C)c2ccc(O)cc2)cc(C#N)n1C | false (0) |

----------
# Tested on: MALME-3M melanoma
# METHOD SUMMARY: NCI tumour cell line growth inhibition, 48 h
This section presents compounds with their documented TGI values.
MEASUREMENT TYPE: TGI

| COMPOUND | RESULT |
| --- | --- |
| Cc1nn(-c2ccccc2)c2nc3c(c(C)nn3-c3ccccc3)c(-c3ccccc3Br)c12 | > 100 µM |
| C=CCOCCCC(=O)C(=[N+]=[N-])C(=O)OC | > 100 µM |
| CC(=O)CCC(=O)CC(O)(C(F)(F)F)C(F)(F)F | 32.9 µM |
| CCCOc1ccc(/C=C/C2=[N+](CCO)CCO2)cc1 | > 100 µM |
| N#CC(c1ccc(Cl)cc1)c1cccc(Cl)n1 (stereo unspecified) | > 100 µM |
| O=C(/C=C(\O)C(=O)O)/C=C(\O)c1ccccc1Cl | > 100 µM |
